Every entry's value here was drawn from the RNAGym collection of RNA variant scans (doi:10.1038/nmeth.2970).

B1: GFP aptamer (parent)
chain: GCUUCUGGACUGCGAUGGGAGCACGAAACGUCGUGGCGCAAUUGGGUGGGGAAAGUCCUUAAAAGAGGGCCACCACAGAAGC

variants of: B1; experiment: HiTS-RAP; conditions: with EGFP
pKd: −log10 of the molar value.
Metric name: pKd

>  <Chain>
GCUUCUGGACUGCGAUGGGAGCACGAAACGUCGUGGCGCAAUUGGGUGGGGAAAGUACUUAAAAGAGGGCCACCACAGAAGC

>  <Metric name>
pKd

>  <Value>
≤ 6.90

$$$$
>  <Chain>
GCUUCUGGACUGCGAUGGGAGCACGAAACGUCGUGGCGCAAUUGGGUGGGGAAAGACCUUAAAAGAGGGCCACCACAGAAGC

>  <Metric name>
pKd

>  <Value>
≤ 6.90

$$$$
>  <Chain>
GCUUCUGGACUGCGAUGGGAGCACGAAACGUCGUGGCGCAAUUGGGUGGGGAAUGUCCUUAAAAGAGGGCCACCACAGAAGC

>  <Metric name>
pKd

>  <Value>
≤ 6.90

$$$$
>  <Chain>
GCUUCUGGACUGCGAUAGGAGCACGAAACGUCGUGGCGCAAUUGGGUGGGGAAAGUCCUUAAAAGAGGGCCACCACAGAAGC

>  <Metric name>
pKd

>  <Value>
≤ 6.90

$$$$
>  <Chain>
GCUUCUGGACUGCGAUGGGAGCACGAAACGUCGUGGCGCAAUUGGGUGGGGAAAGUCCUUAAAAGAGGACCACCACAGAAGC

>  <Metric name>
pKd

>  <Value>
≤ 6.90

$$$$
